subject of test: Androgen receptor (Homo sapiens, UniProt P10275, F877L/T878A)
Sequence (P10275 whole entry F877L/T878A): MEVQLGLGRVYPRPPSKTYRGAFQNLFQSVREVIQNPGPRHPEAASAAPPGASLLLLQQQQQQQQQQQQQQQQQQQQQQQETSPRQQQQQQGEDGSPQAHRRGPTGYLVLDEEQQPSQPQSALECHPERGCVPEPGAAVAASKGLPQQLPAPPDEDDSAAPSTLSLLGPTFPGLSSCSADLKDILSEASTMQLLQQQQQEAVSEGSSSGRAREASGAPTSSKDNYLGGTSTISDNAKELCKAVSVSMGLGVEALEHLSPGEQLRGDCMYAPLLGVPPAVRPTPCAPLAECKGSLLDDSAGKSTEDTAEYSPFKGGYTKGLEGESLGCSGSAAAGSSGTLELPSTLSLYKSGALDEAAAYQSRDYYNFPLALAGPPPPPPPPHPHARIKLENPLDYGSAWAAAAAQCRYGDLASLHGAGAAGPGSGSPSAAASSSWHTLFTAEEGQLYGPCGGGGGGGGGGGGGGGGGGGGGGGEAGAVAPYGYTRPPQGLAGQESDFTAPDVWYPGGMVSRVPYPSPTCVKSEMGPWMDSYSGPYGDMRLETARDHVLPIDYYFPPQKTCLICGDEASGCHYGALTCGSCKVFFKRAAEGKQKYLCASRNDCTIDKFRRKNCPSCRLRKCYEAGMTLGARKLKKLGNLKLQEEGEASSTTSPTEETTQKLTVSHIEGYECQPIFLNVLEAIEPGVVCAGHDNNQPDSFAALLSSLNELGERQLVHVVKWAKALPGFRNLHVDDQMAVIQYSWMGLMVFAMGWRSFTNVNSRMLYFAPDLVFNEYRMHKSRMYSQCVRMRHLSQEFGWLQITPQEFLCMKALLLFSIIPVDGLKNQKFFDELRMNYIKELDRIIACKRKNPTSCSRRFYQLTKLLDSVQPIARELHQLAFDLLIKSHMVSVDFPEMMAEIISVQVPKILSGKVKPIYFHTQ
test name: Antagonist activity at androgen receptor F877L/T877A dual mutant (unknown origin) expressed in PC-3 cells assessed as inhibition of transcriptional activity measured after 24 hrs by dual luciferase assay
Type: cell-based
Answer each item with its documented IC50.
Write the number in µM without appending the unit.

N#Cc1ccc(-n2ccc(CC(=O)Nc3ccc(F)cc3)n2)cc1C(F)(F)F on Androgen receptor (Homo sapiens, UniProt P10275, F877L/T878A) gives IC50 = 0.25

N#Cc1ccc(-n2ccc(CC(=O)Nc3ccc(F)nc3)n2)cc1C(F)(F)F on Androgen receptor (Homo sapiens, UniProt P10275, F877L/T878A) gives IC50 = 1.12

N#Cc1ccc(-n2ccc(CC(=O)Nc3ccc(F)nc3)n2)cc1Cl on Androgen receptor (Homo sapiens, UniProt P10275, F877L/T878A) gives IC50 = 0.27

* * *

Answer each item with its documented pIC50.
subject of test: Androgen receptor (Homo sapiens, UniProt P10275, F877L)
Sequence (P10275 whole entry F877L): as the sequence (P10275 whole entry F877L/T878A) above, with A878T counted along it
test name: Antagonist activity at androgen receptor F877L mutant (unknown origin) expressed in PC-3 cells assessed as inhibition of transcriptional activity measured after 24 hrs by dual luciferase assay
Type: cell-based
Scale for pIC50: -log10 of concentration given in mol/L; no unit attached.

Entry N#Cc1ccc(-n2ccc(CC(=O)Nc3ccc(F)nc3)n2)cc1Cl — recorded pIC50 = 6.34

Entry N#Cc1ccc(-n2ccc(CC(=O)Nc3ccc(F)cc3)n2)cc1C(F)(F)F — recorded pIC50 = 6.04

Entry N#Cc1ccc(-n2ccc(CC(=O)Nc3ccc(F)nc3)n2)cc1C(F)(F)F — recorded pIC50 = 5.88

* * *

Answer each item with its documented IC50.
test name: Cytotoxicity against human Chang liver cells assessed as inhibition of cell proliferation by MTT assay
Format: toxicity, cell-based

Entry CNC(=O)c1ccc(N2C(=S)N(c3ccc(C#N)c(C(F)(F)F)c3)C(=O)C2(C)C)cc1F [ENZALUTAMIDE] — recorded IC50 = 64.7 µM

Entry N#Cc1ccc(-n2ccc(CC(=O)Nc3ccc(F)cc3)n2)cc1C(F)(F)F — recorded IC50 = > 1000 µM

Entry N#Cc1ccc(-n2ccc(CC(=O)Nc3ccc(F)nc3)n2)cc1Cl — recorded IC50 = > 1000 µM

Entry N#Cc1ccc(-n2ccc(CC(=O)Nc3ccc(F)nc3)n2)cc1C(F)(F)F — recorded IC50 = > 1000 µM

* * *

test name: Inhibition of PSA secretion in human LNCaP ARR2PB-eGFP cells measured after 3 days by immuno assay
Format: functional, cell-based
protocol conditions: 72 h
quantity name: pIC50
Scale for pIC50: -log10 of concentration given in mol/L; no unit attached.

Entry N#Cc1ccc(-n2ccc(CC(=O)Nc3ccc(F)nc3)n2)cc1Cl — recorded pIC50 = 6.05

Entry CNC(=O)c1ccc(N2C(=S)N(c3ccc(C#N)c(C(F)(F)F)c3)C(=O)C2(C)C)cc1F [ENZALUTAMIDE] — recorded pIC50 = 6.32

Entry N#Cc1ccc(-n2ccc(CC(=O)Nc3ccc(F)nc3)n2)cc1C(F)(F)F — recorded pIC50 = 5.76

Entry N#Cc1ccc(-n2ccc(CC(=O)Nc3ccc(F)cc3)n2)cc1C(F)(F)F — recorded pIC50 = 5.41

* * *

subject of test: Androgen receptor (Homo sapiens, UniProt P10275)
Sequence (P10275 whole entry): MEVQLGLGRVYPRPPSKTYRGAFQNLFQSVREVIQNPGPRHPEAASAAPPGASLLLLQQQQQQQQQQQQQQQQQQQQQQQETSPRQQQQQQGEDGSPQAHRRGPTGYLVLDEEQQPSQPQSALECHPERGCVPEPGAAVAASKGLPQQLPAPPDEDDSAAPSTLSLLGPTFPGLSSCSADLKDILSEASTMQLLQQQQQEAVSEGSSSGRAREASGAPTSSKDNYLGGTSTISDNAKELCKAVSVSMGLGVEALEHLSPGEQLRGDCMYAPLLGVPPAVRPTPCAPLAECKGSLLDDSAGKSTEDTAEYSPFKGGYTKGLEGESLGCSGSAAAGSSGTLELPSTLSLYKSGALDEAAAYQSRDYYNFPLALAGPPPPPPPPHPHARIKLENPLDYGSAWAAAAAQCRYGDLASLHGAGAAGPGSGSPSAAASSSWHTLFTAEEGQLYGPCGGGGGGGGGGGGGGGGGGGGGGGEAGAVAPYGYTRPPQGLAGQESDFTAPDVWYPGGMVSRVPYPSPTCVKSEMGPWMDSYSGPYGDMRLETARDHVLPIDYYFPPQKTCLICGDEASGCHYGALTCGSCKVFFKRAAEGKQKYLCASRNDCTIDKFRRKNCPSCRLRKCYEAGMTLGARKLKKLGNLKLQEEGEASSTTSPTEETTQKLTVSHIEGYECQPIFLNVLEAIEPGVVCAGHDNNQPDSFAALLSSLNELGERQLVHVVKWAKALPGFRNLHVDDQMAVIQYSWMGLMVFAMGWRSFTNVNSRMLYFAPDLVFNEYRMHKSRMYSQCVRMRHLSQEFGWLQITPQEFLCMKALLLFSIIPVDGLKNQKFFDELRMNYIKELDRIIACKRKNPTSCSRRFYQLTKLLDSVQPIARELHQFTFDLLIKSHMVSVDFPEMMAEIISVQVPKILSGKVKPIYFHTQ
test name: Antagonist activity at androgen receptor (unknown origin) in human LNCap-ARR2PB-eGFP cells by measuring fluorescence intensity measured after 3 days by transcriptional assay
quantity name: IC50 (nM)
Write the number in nM without appending the unit.

N#Cc1ccc(-n2ccc(CC(=O)Nc3ccc(F)cn3)n2)cc1Cl on Androgen receptor (Homo sapiens, UniProt P10275) gives IC50 = 170

N#Cc1ccc(-n2ccc(CC(=O)Nc3ccc(F)nc3)n2)cc1C(F)(F)F on Androgen receptor (Homo sapiens, UniProt P10275) gives IC50 = 140

N#Cc1ccc(-n2ccc(CC(=O)Nc3ccc(F)nc3)n2)cc1Cl on Androgen receptor (Homo sapiens, UniProt P10275) gives IC50 = 69

N#Cc1ccc(-n2ccc(CC(=O)Nc3ccc(F)c(F)c3)n2)cc1C(F)(F)F on Androgen receptor (Homo sapiens, UniProt P10275) gives IC50 = 210

COc1ccc(NC(=O)Cc2ccn(-c3ccc(C#N)c(C(F)(F)F)c3)n2)cc1 on Androgen receptor (Homo sapiens, UniProt P10275) gives IC50 = 9200
